# System: S. aureus MF490
MEASURED_METRIC: MIC (µg/mL)
Enter your answer as a number in µg/mL; do not include the unit.

>>> measured_number("CNC1C(O[C@H]2OC(CO)[C@@H](NC(=O)[C@H](O)CN)[C@H](O)C2O)O[C@H]2C[C@H](N)[C@@H](O[C@@H]3C(N)C[C@@H](N)C(O)[C@H]3O)OC2C1O (stereo partly drawn) [Compound V1-s, 5-epi-4″-N-(D-isoseryl)apramycin]")
4

Prompt: Notebook entry, S. aureus MF490 assay: MIC of CNC1C(O[C@H]2OC(CO)[C@@H](NC(CN)CN)[C@H](O)C2O)O[C@H]2CC(N)[C@@H](O[C@@H]3C(N)C[C@@H](N)C(O)[C@H]3O)OC2C1O (some centres unmarked) [Compound A4-d, 4″-N-(1,3-diaminopropan-2-yl)apramycin] = ?
Response: 4

====

What follows is a record of MIC for A. baumannii ATCC BAA-1710.
Enter your answer as a number in µg/mL; do not include the unit.

Example cases with answers are listed next.
>>> measured_number("CNC1C(O[C@H]2OC(CO)[C@@H](N)[C@H](N)C2O)O[C@H]2CC(N)[C@@H](O[C@@H]3C(N)C[C@@H](N)C(O)[C@H]3O)OC2C1O (stereo partly shown) [Compound G8, 3″-amino-3″-deoxyapramycin]")
16
>>> measured_number("CNC1C(O[C@H]2OC(CO)[C@@H](NC(=N)N)[C@H](O)C2O)O[C@H]2CC(N)[C@@H](O[C@@H]3C(N)C[C@@H](N)C(O)[C@H]3F)OC2C1O (stereo partly shown) [Compound S1-k]")
8

Prompt: Return reported MIC; argument: CNC1C(O[C@H]2OC(CO)[C@@H](NC(=N)N)[C@H](O)C2O)O[C@H]2CC(N)[C@@H](O[C@H]3CC[C@H](N)CC3N)OC2C1O (stereo partly shown) [Compound T2-e]
Response: 4

Prompt: Return reported MIC; argument: CNC1C(O[C@H]2OC(CO)[C@@H](NC(=O)[C@H](O)CN)[C@H](O)C2O)O[C@H]2C[C@H](N)[C@@H](O[C@@H]3C(N)C[C@@H](N)C(O)[C@H]3O)OC2C1O (stereo partly drawn) [Compound V1-s, 5-epi-4″-N-(D-isoseryl)apramycin]
Response: 4

Prompt: Return reported MIC; argument: NCC[C@H](O)C(=O)N[C@@H]1C[C@H](N)[C@@H](O[C@H]2O[C@H](CN)CC[C@H]2N)[C@H](O)[C@H]1O[C@H]1O[C@H](CO)[C@@H](O)[C@H](N)[C@H]1O [ABK, arbekacin, reference compound]
Response: 32

Prompt: Return reported MIC; argument: CNCC(=O)N[C@@H]1C(CO)O[C@H](OC2O[C@H]3CC(N)[C@@H](O[C@@H]4C(N)C[C@@H](N)C(O)[C@H]4O)OC3C(O)C2NC)C(O)[C@H]1O (stereo partly shown) [Compound V1-b, 4″-N-sarcosylapramycin]
Response: 8

Prompt: Return reported MIC; argument: CNC1C(O[C@H]2OC(CO)[C@@H](NCCN)[C@H](O)C2O)O[C@H]2CC(N)[C@@H](O[C@H]3CC(O)[C@H](N)CC3N)OC2C1O (stereo partly shown) [Compound S1-b, 4″-N-(2-aminoethyl)-5-deoxyapramycin]
Response: 4

Prompt: Return reported MIC; argument: CNC1C(O[C@H]2OC(CO)[C@@H](NC(=O)[C@@H](C)N)[C@H](O)C2O)O[C@H]2CC(N)[C@@H](O[C@@H]3C(N)C[C@@H](N)C(O)[C@H]3O)OC2C1O (stereo partly drawn) [Compound V1-d, 4″-N-(D-alanyl)apramycin]
Response: 8

Prompt: Return reported MIC; argument: CNC1C(O[C@H]2OC(CO)[C@@H](NCCN)[C@H](O)C2O)O[C@H]2CC(N)[C@@H](O[C@@H]3C(N)C[C@@H](N)C[C@H]3O)OC2C1O (stereo partly shown) [Compound S1-m]
Response: 4

Prompt: Return reported MIC; argument: CNC1C(O[C@H]2OC(CO)[C@@H](NC(=N)N)[C@H](O)C2O)O[C@H]2CC(N)[C@@H](O[C@@H]3C(N)C[C@@H](N)C(O)[C@H]3O)OC2C1O (stereo partly shown) [Compound A4-j, 4″-deamino-4″-guanidinoapramycin]
Response: 8

====

The following compounds are shown together with reported MIC values.
# Test system: S. aureus MF490
Enter your answer as a number in µg/mL; do not include the unit.

Example cases with answers are listed next.
>>> measured_number("CNC1C(O[C@H]2OC(CO)[C@@H](NC(=N)N)[C@H](O)C2O)O[C@H]2CC(N)[C@@H](O[C@@H]3C(N)C[C@@H](N)C[C@H]3O)OC2C1O (stereo partly shown)")
2
>>> measured_number("CNC1C(O[C@H]2OC(CO)[C@@H](NC(=O)[C@H](C)N)[C@H](O)C2O)O[C@H]2CC(N)[C@@H](O[C@@H]3C(N)C[C@@H](N)C(O)[C@H]3O)OC2C1O (stereo partly drawn) [Compound V1-k, 4″-N-(L-alanyl)-5-epiapramycin]")
8
>>> measured_number("CNC1C(O[C@H]2OC(CO)[C@@H](NC(=N)N)CC2O)O[C@H]2CC(N)[C@@H](O[C@@H]3C(N)C[C@@H](N)C(O)[C@H]3F)OC2C1O (stereo partly shown)")
4

Okay, now this compound:
Prompt: Notebook entry, S. aureus MF490 assay: MIC of CNC1C(O[C@H]2OC(CF)[C@@H](N)[C@H](O)C2O)O[C@H]2CC(N)[C@@H](O[C@@H]3C(N)C[C@@H](N)C(O)[C@H]3O)OC2C1O (stereo partly shown) = ?
Response: 16

====

What follows is a record of MIC for S. aureus MF490.
Enter your answer as a number in µg/mL; do not include the unit.

>>> measured_number("CNC1C(O[C@H]2OC(CO)[C@@H](NCCCN)[C@H](O)C2O)O[C@H]2CC(N)[C@@H](O[C@H]3CC[C@H](N)CC3N)OC2C1O (some centres unmarked) [Compound T2-c]")
8
>>> measured_number("CNC1C(O[C@H]2OC(CO)[C@@H](NCCN)[C@H](O)C2O)O[C@H]2CC(N)[C@@H](O[C@H]3CC(O)[C@H](N)CC3N)OC2C1O (some centres unmarked) [Compound S1-b, 4″-N-(2-aminoethyl)-5-deoxyapramycin]")
4
>>> measured_number("CNC1C(O[C@H]2OC(CO)[C@@H](N(CCN)CCN)[C@H](O)C2O)O[C@H]2CC(N)[C@@H](O[C@@H]3C(N)C[C@@H](N)C(O)[C@H]3O)OC2C1O (some centres unmarked) [Compound A4-e, 4″-N,N-bis(2-aminoethyl)apramycin]")
4

Prompt: Return reported MIC; argument: CNC1C(O[C@H]2OC(CO)[C@@H](NCCN)[C@H](O)C2O)O[C@H]2CC(N)[C@@H](O[C@@H]3C(N)C[C@@H](N)C(O)[C@H]3O)OC2C1O (some centres unmarked) [Compound S1-g, 4″-N-(2-aminoethyl)-5-epiapramycin]
Response: 8

Prompt: Return reported MIC; argument: CNC1C(O[C@H]2OC(CO)[C@@H](NCCCN)[C@H](O)C2O)O[C@H]2CC(N)[C@@H](O[C@H]3CC(O)[C@H](N)CC3N)OC2C1O (some centres unmarked) [Compound S1-c, 4″-N-(3-aminopropyl)-5-deoxyapramycin]
Response: 4

====

What follows is a record of MIC for S. aureus MF490.
Enter your answer as a number in µg/mL; do not include the unit.

Prompt: Notebook entry, S. aureus MF490 assay: MIC of CNC1C(O[C@H]2OC(CO)[C@@H](N[C@H]3CC[C@@H](N)CC3)[C@H](O)C2O)O[C@H]2CC(N)[C@@H](O[C@@H]3C(N)C[C@@H](N)C(O)[C@H]3O)OC2C1O (stereo partly drawn) [Compound A4-f] = ?
Response: 8

Prompt: Notebook entry, S. aureus MF490 assay: MIC of CNC1C(O[C@H]2OC(CO)[C@@H](N)[C@H](N)C2O)O[C@H]2CC(N)[C@@H](O[C@@H]3C(N)C[C@@H](N)C(O)[C@H]3O)OC2C1O (stereo partly drawn) [Compound G8, 3″-amino-3″-deoxyapramycin] = ?
Response: 32

Prompt: Notebook entry, S. aureus MF490 assay: MIC of CNC1C(O[C@H]2OC(CO)[C@@H](NC(=N)N)[C@H](O)C2O)O[C@H]2CC(N)[C@@H](O[C@@H]3C(N)C[C@@H](N)C(O)[C@H]3O)OC2C1O (stereo partly drawn) [Compound A4-j, 4″-deamino-4″-guanidinoapramycin] = ?
Response: 8

Prompt: Notebook entry, S. aureus MF490 assay: MIC of CNC1C(O[C@H]2OC(CO)[C@@H](NC(=O)[C@@H](O)CN)[C@H](O)C2O)O[C@H]2C[C@H](N)[C@@H](O[C@@H]3C(N)C[C@@H](N)C[C@H]3O)OC2C1O (stereo partly drawn) [Compound V1-r, 6-deoxy-5-epi-4″-N-(L-isoseryl)apramycin] = ?
Response: 4
